- System: HepG2 viability, CellTiter-Glo ATP luminescence, 72 h
- experiment_description: viability loss in human hepatoma cells – cell-based, CellTiter-Glo luminescence, cherry-pick, set 2, cytotoxicity control, dose response (AID 743395)
quantity_kind: AC35

Q: // lookup AC35 | system=HepG2 viability, CellTiter-Glo ATP luminescence, 72 h | key= O=C(Nc1ccccc1)N1CCCCN2[C@@H](CO)[C@H](c3ccc(C#Cc4ccccc4)cc3)[C@@H]2C1
Result: 10.9 µM

Q: Next entry: O=C(Nc1cccc(F)c1)N1CCCCN2[C@@H](CO)[C@H](c3ccc(C#CC4CC4)cc3)[C@@H]2C1
Result: 10.1 µM

Q: Let us now turn to CC(C)(C)c1ccc(/C=C/C(=O)c2ccc(NC3=NCCCS3)cc2)cc1
Result: 18.2 µM

Q: Moving on to the next molecule: COc1ccc(NC(=O)c2nc(C)c(C3(C)CC(c4cccnc4)=NO3)s2)cc1 (stereo not given)
Result: 13.9 µM

Q: Now consider Clc1ccc2c(c1)-c1ccccc1C1=NCCN12 and answer again.
Result: 3.06 µM
